Attribution: the supplement of paper PMC3545927

- target.entity: furin, P09958;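 also: purified furin at 1:10 enzyme:substrate in 50 mM HEPES pH 7.5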
- Sequence (P09958 whole entry): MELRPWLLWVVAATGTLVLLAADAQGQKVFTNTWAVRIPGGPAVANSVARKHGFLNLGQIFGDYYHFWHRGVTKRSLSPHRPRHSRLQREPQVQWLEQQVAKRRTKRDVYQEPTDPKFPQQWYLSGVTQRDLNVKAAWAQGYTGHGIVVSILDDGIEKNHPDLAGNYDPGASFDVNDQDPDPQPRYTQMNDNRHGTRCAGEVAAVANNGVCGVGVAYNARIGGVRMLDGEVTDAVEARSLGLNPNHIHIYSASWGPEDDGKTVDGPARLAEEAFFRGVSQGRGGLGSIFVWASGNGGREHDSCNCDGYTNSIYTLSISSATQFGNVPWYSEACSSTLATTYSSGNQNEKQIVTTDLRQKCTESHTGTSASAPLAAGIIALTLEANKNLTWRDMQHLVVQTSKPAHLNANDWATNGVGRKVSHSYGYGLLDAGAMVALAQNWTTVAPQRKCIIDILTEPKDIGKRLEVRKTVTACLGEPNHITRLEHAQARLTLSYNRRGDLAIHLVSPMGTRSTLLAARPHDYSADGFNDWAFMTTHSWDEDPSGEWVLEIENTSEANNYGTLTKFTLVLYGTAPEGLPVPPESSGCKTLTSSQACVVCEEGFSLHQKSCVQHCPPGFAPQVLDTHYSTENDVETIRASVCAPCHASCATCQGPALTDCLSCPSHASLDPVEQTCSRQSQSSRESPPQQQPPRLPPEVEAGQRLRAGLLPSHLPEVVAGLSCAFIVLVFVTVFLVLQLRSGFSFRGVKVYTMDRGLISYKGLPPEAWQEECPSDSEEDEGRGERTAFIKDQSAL
- measurement.protocol: furin cleavage Z-score vs untreated control; higher = more cleavage, active = 3.5 or more, inactive = 1 or less, 8 variable residues between constant flanks
- setup.conditions: 30 min
The other results are listed elsewhere or left out. No count for the full screen is at hand.
observation.type: furin cleavage Z-score

| residue.codes | value.observed |
| --- | --- |
| CARSKRYVHLAGNASASA [FS-2381] | 7.4 (active) |

Parameter requested: furin cleavage Z-score. Apply to each item below.
1. CARVMRWNSKAGNASASA [FS-3120]
2. CASTPCSAFLAGNASASA [HC2547]
3. CARSKRRWAPAGNASASA [FS-2307]
4. CARVRRAWVIAGNASASA [FS-3124]

[2.88, "0.628 (inactive)", 2.12, "7.77 (active)"]

Parameter requested: furin cleavage Z-score. Apply to each item below.
1. CAVPGAVYTFAGNASASA [HC552]
2. CARVRRRSVQAGNASASA [FS-3175]
3. CAEVPCHRPEAGNASASA [HC2412]
4. CAVSGRVPRSAGNASASA [FS-1103]
5. CARSVRSTRDAGNASASA [FS-1075]
6. CACEIYGACYAGNASASA [HC1593]

1: -0.772 (inactive); 2: 0.754 (inactive); 3: -0.217 (inactive); 4: 5.91 (active); 5: 9.05 (active); 6: -2.18 (inactive)

Parameter requested: furin cleavage Z-score. Apply to each item below.
1. CATTPMSGSWAGNASASA [HC48]
2. CARSKKPKGLAGNASASA [FS-3082]

["-0.511 (inactive)", "-1.55 (inactive)"]

Parameter requested: furin cleavage Z-score. Apply to each item below.
1. CATTPCSGDWAGNASASA [HC1911]
2. CARDARMSDAAGNASASA [FS-2204]

["0.621 (inactive)", "0.769 (inactive)"]

Parameter requested: furin cleavage Z-score. Apply to each item below.
1. CAVVCCVMSYAGNASASA [HC103]
2. CAVYSTTSRSAGNASASA [HC1389]
3. CAITLPQDAVAGNASASA [HC898]
4. CARSKRPSTDAGNASASA [FS-2606]
5. CAECVVCCSMAGNASASA [HC2140]
6. CARGRRRRRTAGNASASA [FS-1399]
7. CARSKRDSTYAGNASASA [FS-3169]

-1.47 (inactive)
-0.531 (inactive)
-1.58 (inactive)
0.307 (inactive)
-0.883 (inactive)
6 (active)
7.09 (active)

Parameter requested: furin cleavage Z-score. Apply to each item below.
1. CAEVPCHEPSAGNASASA [HC2372]
2. CAASRQAEVIAGNASASA [HC1030]

1. -0.669 (inactive)
2. -1.56 (inactive)

Parameter requested: furin cleavage Z-score. Apply to each item below.
1. CARVRRLVRHAGNASASA [FS-3240]
2. CAPFSRVPRKAGNASASA [FS-1380]
3. CAEVLTSTWVAGNASASA [HC2185]
4. CARSKRDEKLAGNASASA [FS-2810]
5. CAVAYQATVCAGNASASA [HC954]

9.85 (active)
7.08 (active)
0.492 (inactive)
5.15 (active)
-0.577 (inactive)

Given the sequence CAPVGSQLPCAGNASASA [HC1238] , what is its reported furin cleavage Z-score? 0.372 (inactive)
